Data origin: ChEMBL document CHEMBL4304800

# System: Mycobacterium tuberculosis
# protocol-text: Antitubercular activity against serine beta-lactamase producing Mycobacterium tuberculosis H37Rv after 14 days in presence of middlebrook 7H9/BSA medium by eleven fold serial dilution method
# Format: functional
# assay-conditions: 336 h
value-type: MIC99 (µg/mL)

molecule: O=C1CC(Sc2c(F)c(F)c(F)c(F)c2F)N1 (racemic)
test-target: Mycobacterium tuberculosis
inequality-operator: >
measured-number: 100

molecule: O=C1CC(Sc2ccc(F)cc2)N1 (racemic)
test-target: Mycobacterium tuberculosis
inequality-operator: >
measured-number: 100

molecule: O=C1CC(Sc2ccc(C(F)(F)F)cc2)N1C(=O)NCc1ccccc1 (racemic)
test-target: Mycobacterium tuberculosis
inequality-operator: =
measured-number: 12.5

molecule: C[C@H](NC(=O)N1C(=O)C[C@H]1Sc1ccc(F)cc1F)c1ccccc1
test-target: Mycobacterium tuberculosis
inequality-operator: =
measured-number: 50

molecule: C[C@H](NC(=O)N1C(=O)C[C@@H]1Sc1ccc(F)cc1)c1ccccc1
test-target: Mycobacterium tuberculosis
inequality-operator: =
measured-number: 50

molecule: COc1ccc(S[C@@H]2CC(=O)N2C(=O)N[C@H](C)c2ccccc2)cc1
test-target: Mycobacterium tuberculosis
inequality-operator: =
measured-number: 100

molecule: O=C1CC(Sc2ccc(F)cc2)N1C(=O)NCc1ccccc1 (racemic)
test-target: Mycobacterium tuberculosis
inequality-operator: =
measured-number: 6.2

molecule: COc1ccccc1S[C@@H]1CC(=O)N1C(=O)N[C@H](C)c1ccccc1
test-target: Mycobacterium tuberculosis
inequality-operator: >
measured-number: 100

molecule: COc1ccccc1SC1CC(=O)N1 (racemic)
test-target: Mycobacterium tuberculosis
inequality-operator: >
measured-number: 250

molecule: C[C@@H](NC(=O)N1C(=O)C[C@H]1Sc1ccccc1F)c1ccccc1
test-target: Mycobacterium tuberculosis
inequality-operator: =
measured-number: 25

molecule: C[C@@H](NC(=O)N1C(=O)C[C@@H]1Sc1ccc(F)c(Cl)c1)c1ccccc1
test-target: Mycobacterium tuberculosis
inequality-operator: =
measured-number: 25

molecule: C[C@H](NC(=O)N1C(=O)C[C@H]1Sc1c(F)c(F)c(F)c(F)c1F)c1ccccc1
test-target: Mycobacterium tuberculosis
inequality-operator: =
measured-number: 100

molecule: C[C@@H](NC(=O)N1C(=O)C[C@H]1Sc1ccc(F)cc1)c1ccccc1
test-target: Mycobacterium tuberculosis
inequality-operator: =
measured-number: 50

molecule: COc1ccc(SC2CC(=O)N2)cc1 (racemic)
test-target: Mycobacterium tuberculosis
inequality-operator: =
measured-number: 100

molecule: C[C@@H](NC(=O)N1C(=O)C[C@H]1Sc1ccc(F)cc1Cl)c1ccccc1
test-target: Mycobacterium tuberculosis
inequality-operator: =
measured-number: 50

molecule: C[C@H](NC(=O)N1C(=O)C[C@@H]1[Se]c1ccccc1)c1ccccc1
test-target: Mycobacterium tuberculosis
inequality-operator: =
measured-number: 25

molecule: COc1ccccc1SC1CC(=O)N1C(=O)NCc1ccccc1 (racemic)
test-target: Mycobacterium tuberculosis
inequality-operator: =
measured-number: 188

molecule: C[C@H](NC(=O)N1C(=O)C[C@@H]1Sc1ccc(F)cc1Cl)c1ccccc1
test-target: Mycobacterium tuberculosis
inequality-operator: =
measured-number: 25

molecule: NNC(=O)c1ccncc1
test-target: Mycobacterium tuberculosis
inequality-operator: =
measured-number: 0.07
